Measured values drawn from PubChem BioAssay (NCI) for this set.

test system: CCRF-CEM leukemia; test: NCI tumour cell line growth inhibition, 48 h
Below, each entry is listed with its recorded TGI.

compound | assayTarget | TGI
COC1=C(OC)C(=O)C(SC/C=C(\C)CCCC(C)CCCC(C)CCCC(C)C)=CC1=O (centres undefined) | CCRF-CEM leukemia | > 100 µM
Cc1ccc(NC(=O)CC2C(=O)Nc3ccccc3S2(=O)=O)c(C)c1 (centres undefined) | CCRF-CEM leukemia | 43.2 µM
COc1ccc(OC)c(N(CN2C(=O)CCC2C(=O)O)C(C)=O)c1 (centres undefined) | CCRF-CEM leukemia | > 100 µM
COc1cc2c(cc1OCCCCN1CCN(C(=S)SCCC(C#N)(c3ccccc3)c3ccccc3)CC1)N=C[C@@H]1CCCN1C2=O | CCRF-CEM leukemia | > 100 µM
COc1cc(/C=C/C(=O)c2cccc(-n3cc(-c4ccc(Cl)cc4)[nH]c3=O)c2)cc(OC)c1OC | CCRF-CEM leukemia | > 100 µM
O=CNCNCCO | CCRF-CEM leukemia | > 100 µM
CC(=O)NC1C(OCc2ccccc2)OC(CO)C(O)C1OC(C)C(=O)NC(C)C(=O)NC(CCC(=O)NCCCCNc1c2ccccc2nc2cccc([N+](=O)[O-])c12)C(N)=O (centres undefined) | CCRF-CEM leukemia | 0.578 µM
N#Cc1nc(-c2ccco2)oc1N | CCRF-CEM leukemia | > 10 µM
COC1C(N)C(OC2C(Oc3cccc4c(O)c5c(=O)oc6ccc(C)c7c(=O)oc(c34)c5c67)OC(C)C(O)C2(C)O)OC(C)C1O (centres undefined) | CCRF-CEM leukemia | 3.66 µM

---

tested on: OVCAR-3 ovarian; assay: NCI tumour cell line growth inhibition, 48 h

compound | assayTarget | readoutUnit | readoutQualifier | TGI
Cc1cc(N(CCCNc2ccnc3cc(Cl)ccc23)Cc2ccco2)nc(N2CCN(C)CC2)n1 | OVCAR-3 ovarian | µM | = | 12.1
COC(=O)c1cc2c(c3c1CC(Cc1ccccc1)C3=O)CCC2 (stereo not given) | OVCAR-3 ovarian | µM | > | 100
CC(=O)NC1C(OCc2ccccc2)OC(CO)C(O)C1OC(C)C(=O)NC(C)C(=O)NC(CCC(=O)NCCCCNc1c2ccccc2nc2cccc([N+](=O)[O-])c12)C(N)=O (stereo not given) | OVCAR-3 ovarian | µM | = | 1.64
COc1ccc(/C=N/n2c(C)n[nH]c2=O)c(OC)c1 | OVCAR-3 ovarian | µM | > | 100
CC1=NC(=Cc2ccccc2O)C(=O)N1n1c(-c2ccccc2)nc2ccccc2c1=O | OVCAR-3 ovarian | µM | > | 100

---

test system: NCI/ADR-RES ovarian; experiment: NCI tumour cell line growth inhibition, 48 h
Below, each entry is listed with its recorded TGI.

molecule | TGI
CC(=O)Oc1ccc(/C=C/C(=O)OCCCOC(=O)/C=C/c2ccc(OC(C)=O)c(OC(C)=O)c2)cc1OC(C)=O | > 100 µM
COc1ccc(NC(=O)C2CCC(CNS(=O)(=O)c3ccccc3)CC2)cc1OC (centres undefined) | > 100 µM
CCOC(=O)N1N=C(/C(C)=N/OC)C(C)S1=O (centres undefined) | > 100 µM
Oc1ccc(C(c2ccc(O)cc2)c2ccc(Br)cn2)cc1 | 0.55 µM
COc1cc(O)c2c(=O)c(O)c(-c3ccc(O)c(OC)c3)oc2c1 | > 100 µM
COC1C(N)C(OC2C(Oc3cccc4c(O)c5c(=O)oc6ccc(C)c7c(=O)oc(c34)c5c67)OC(C)C(O)C2(C)O)OC(C)C1O (centres undefined) | 12.1 µM
CC(=O)OCC(=O)O[C@@H]1[C@H]2[C@@H](OC(=O)c3ccccc3)[C@@H](C)C[C@]2(O)[C@H](OC(C)=O)[C@@]2(C)C(OC(C)=O)[C@]1(OC(C)=O)C[C@H]1C(=O)C(C)(C)C[C@@H]12 (some centres undefined) | > 50 µM
C/C(=N/N=C(\[O-])c1ccncc1)C(F)(F)F.C/C(=N\N=C(/[O-])c1ccncc1)C(F)(F)F.[Ni+2] | > 1 µM
CON(C)c1nc(N(C)OC)nc(N(C)OC)n1 | > 10 µM

---

system: UACC-257 melanoma; test: NCI tumour cell line growth inhibition, 48 h

compound | TGI
Cc1ccc(-c2nc(N/N=C/C=C/c3ccccc3)c3ccccc3n2)cc1 | > 100 µM
COC1=C(OC)C(=O)C(SC/C=C(\C)CCCC(C)CCCC(C)CCCC(C)C)=CC1=O (stereo not given) | > 100 µM
Nc1c([N+](=O)[O-])nc(Cl)c2nncn12 | > 100 µM
CCN(CC)c1ccc2c(c1)Oc1ccc(N(CC)CC)cc1C21Oc2ccccc2-c2c1c1ccccc1n2CC (stereo not given) | > 100 µM
c1cc2nnc1SCCCSc1ccc(nn1)SCCCS2 | > 71.6 µM
CCC1OC2C(CC=C(C)C)=C3OC(C)(O)C(C)(CC)C(OC(C)=O)C3=C3OC(=O)C=C1C32 (stereo not given) | 53.7 µM
N#CC1=C(/N=C/c2ccccc2)Oc2c(ccc3ccccc23)C1c1ccccc1 (stereo not given) | > 100 µM
c1ccc(CCc2cccnc2)nc1 | > 100 µM
Fc1ccc(N2C(=S)SC(=Nc3ccccc3)C2=Nc2ccccc2)cc1 | > 100 µM
NS(=O)(=O)c1ccc(-c2cc3ccncc3cc2OCc2ccccc2)cc1 | > 25 µM

---

system: U251 CNS; experiment: NCI tumour cell line growth inhibition, 48 h
Below, each entry is listed with its recorded TGI.

compound | readoutUnit | readoutQualifier | TGI
O=C(NC1CCN(Cc2ccccc2)CC1)c1ccc(I)cc1 | µM | > | 100
CCOC(=O)c1sc2nc(SC)nc3c2c1NCN3c1ccc2c(c1)OCO2 | µM | = | 23.1
CCN(CC)c1ccc2c(c1)Oc1ccc(N(CC)CC)cc1C21Oc2ccccc2-c2c1c1ccccc1n2CC (stereo not drawn) | µM | > | 100
O=S(=O)(/C=C/C(=C/c1ccccc1)S(=O)(=O)c1ccccc1)c1ccccc1 | µM | = | 3.27
Cc1ccc(C)c(N2C(=O)C(=O)C(c3nc4ccccc4s3)/C(=N/NC(=O)NN)C2=O)c1 (stereo not drawn) | µM | > | 100
CC1OC(OC2C(O)CC(OC3C(O)CC(OC4CCC5(C)C(CCC6C5CC(O)C5(C)C(C7=CC(=O)OC7)CCC65O)C4)OC3C)OC2C)CC(O)C1O (stereo not drawn) | µM | = | 0.165
CC1(C)OCC([C@H]2O[C@@H](CC(=S)NCCCCCCCCCCCCNC(=S)C[C@H]3O[C@@H](C4COC(C)(C)O4)[C@H]4OC(C)(C)O[C@H]43)[C@H]3OC(C)(C)O[C@H]32)O1 (stereo partly drawn) | µM | > | 100
Cc1cc(C)nc(NS(=O)(=O)c2ccc(NC(=O)c3cccc4c(Nc5ccc(S(=O)(=O)Nc6cc(C)on6)cc5)c5ccccc5nc34)cc2)n1 | µM | = | 40.2
NS(=O)(=O)c1ccc(-c2cc3ccncc3cc2OCc2ccccc2)cc1 | µM | > | 25
O=C(CC1(O)C(=O)N(Cc2ccccc2)c2ccccc21)c1ccc(C(=O)NCC2CCC3(CC2)OOC2(CCCCC2)OO3)cc1 (stereo not drawn) | µM | = | 2.17
O=C(N/N=C/c1ccc([N+](=O)[O-])cc1)Nc1ccc(C(=O)O)cc1 | µM | > | 100
O=c1c2cc(S(=O)(=O)O)ccc2nc(COc2ccc(Oc3ccc(Cl)cc3Cl)cc2)n1-c1ccc(Oc2ccc(Cl)cc2)cc1Cl | µM | = | 30.1
O=[N+]([O-])c1ccc(OC2CC3C4C=CC3C2C4)c([N+](=O)[O-])c1 (stereo not drawn) | µM | > | 100
C=C(C)C1Cc2c(c3ccccc3n(C)c2=O)O1 (stereo not drawn) | µM | > | 100
Fc1ccc(N2C(=S)SC(=Nc3ccccc3)C2=Nc2ccccc2)cc1 | µM | > | 100
COc1ccc2c(c1)c1c(n2CCN(C)C)-c2ccccc2CC1 | µM | = | 27.2
O=C(/C=C/c1ccc(Oc2cc(C(=O)/C=C/c3ccc(O)cc3)c(O)cc2O)cc1)c1ccc(O)cc1O | µM | = | 20.7
Cn1cc(C2=C(c3cccc(OC[C@@H](O)CO)c3)C(=O)NC2=O)c2ccccc21 | µM | > | 25

---

Below, each entry is listed with its recorded TGI.
test system: RPMI-8226 leukemia; assay: NCI tumour cell line growth inhibition, 48 h
Where a SMILES comes first, the peptide text is derived from it. The star is where a group is joined. Palmitoyl = CCCCCCCCCCCCCCCC(=O)*

compound | assayTarget | TGI
COC(=O)[C@@]1(C(C)CC(=O)O)CCCCC1=O (stereo partly drawn) | RPMI-8226 leukemia | 82 µM
CC(C)(C)C1=CC(C)(n2[nH]c(=O)n(-c3ccccc3)c2=O)C=C(C(C)(C)C)C1=O | RPMI-8226 leukemia | > 100 µM
CC1CN=C(N(Cc2ccccc2)C(=O)Nc2ccc(Cl)c(Cl)c2)S1 (stereo not drawn) | RPMI-8226 leukemia | > 100 µM
CCCCCCCCCCCCCCCC(=O)N1CCCC1C(=O)NCC(=O)NC(Cc1ccccc1)C(=O)NC(C)C(=O)NC(CO)C(=O)NC(Cc1ccc(O)cc1)C(=O)NC(CCCCN)C(=O)NC(CC(C)C)C(=O)NC(CCCN=C(N)N)C(=O)N1CCCC1C(=O)NCC(N)=O (stereo not drawn) (Palmitoyl-PGFASYKLRPG-NH2; configuration not given here) | RPMI-8226 leukemia | 16.4 µM
O=C(O)c1cccc(C(=O)O)c1S(=O)Cc1ccccc1 (stereo not drawn) | RPMI-8226 leukemia | > 100 µM
COC(=O)c1ccc2c(c1)S/C(=C/c1ccc3ccc4cccc5ccc1c3c45)S2 | RPMI-8226 leukemia | > 100 µM
COC(=O)c1cc2c(cc1Cl)SC1=NN(C)C(N(C)C)N1S2(=O)=O (stereo not drawn) | RPMI-8226 leukemia | > 100 µM
COc1cc(O)c2c(=O)c(O)c(-c3ccc(O)c(OC)c3)oc2c1 | RPMI-8226 leukemia | > 100 µM
